# assay_comment: RP, Phenomenex Luna Omega Polar C18, 100 × 2.1 mm, 1.6 µm, 40 °C, 0.5 mL/min, estimated dead time 0.44 min; A: water + 0.1% formic acid + 10 mM ammonium formate; B: acetonitrile; gradient (min/%B) 0/5 8/20 10/100 12/100 12.1/5 14/5
# condition: stereoisomer not certain
property_measured: LC retention time (min)

Here is how some compounds turned out for LC retention time.
O=c1c(O)c(-c2ccc(O)cc2)oc2cc(O)cc(O)c12 | 9.66
O=C(C=Cc1ccc(O)c(O)c1)OC(Cc1ccc(O)c(O)c1)C(=O)O (stereo not given) | 8.46
O=C(O)CCc1ccc(O)c(O)c1 [Dihydrocaffeic acid] | 3.46
O=C(CCc1ccc(O)cc1)c1c(O)cc(O)cc1O | 9.58
COc1cc(-c2oc3cc(O)cc(O)c3c(=O)c2O)ccc1O | 9.84

[A] CCCCCCCCCCCCCCCCCCCCCCCCCc1cc(O)cc(O)c1
[B] OCCc1ccc(O)c(O)c1 [Hydroxytyrosol]
[C] O=C(O)c1cc(O)c(O)c(O)c1
Incoming: With regard to LC retention time, arrange the entries in ascending order, please. # output: labels, in the requested order
Outgoing: C, B, A

[I] O=c1cc(-c2ccc(O)cc2)oc2cc(OC3OC(CO)C(O)C(O)C3O)cc(O)c12 (stereo not given) [Apigenin 7-O-glucoside]
[II] Oc1cc(O)c2c(c1)OC(c1ccc(O)c(O)c1)C(O)C2 (single isomer, unassigned; (-)) [(-)-Epicatechin]
Incoming: Given I and II , report the one with the higher recorded LC retention time. # reply format: chosen label
Outgoing: I
(I: 9.12 min, II: 4.95 min)

[1] CC1OC(OC2C(Oc3cc(O)c4c(c3)OC(c3ccc(O)cc3)CC4=O)OC(CO)C(O)C2O)C(O)C(O)C1O (stereo not given)
[2] O=C(O)CCc1ccc(O)cc1
Incoming: # query: argmin of LC retention time over 1 and 2 # reply format: chosen label
Outgoing: 2

[a] O=c1cc(-c2ccc(O)c(O)c2)oc2cc(O)cc(O)c12
[b] O=S(=O)(O)Oc1c(O)cccc1O [Pyrogallol 2-O-sulfate]
[c] COc1cc(C(=O)O)ccc1O
Incoming: Order the entries by their reported LC retention time, beginning at the minimum. Write the labels, ordered according to the request.
Outgoing: b, c, a
(b: 1.61 min, c: 4.01 min, a: 9.48 min)

----------
# assay_comment: RP, Waters ACQUITY UPLC BEH Shield RP18, 150 × 2.1 mm, 1.7 µm, 40 °C, 0.4 mL/min, estimated dead time 0.83 min; A: water + 0.1% formic acid, pH 3; B: acetonitrile + 0.1% formic acid, pH 3; gradient (min/%B) 0/0 30/50 31/100 37/100 37.1/0
# condition: stereoisomer not certain
property_measured: LC retention time (min)

O=c1c(OC2OC(CO)C(O)C(O)C2O)c(-c2ccc(O)cc2)oc2cc(O)cc(O)c12 (stereo not drawn) [Kaempferol-3-O-glucoside] | 14.7
O=C(O)C=Cc1ccccc1 [Cinnamic acid-trans] | 16.2
COc1cc(C=CC(=O)O)cc(OC)c1O | 11.1
O=C1c2c(O)cc(O)cc2OC(c2ccc(O)c(O)c2)C1O (stereo not drawn) | 12.4
O=C(O)C1OC(Oc2c(-c3ccc(O)c(O)c3)oc3cc(O)cc(O)c3c2=O)C(O)C(O)C1O (stereo not drawn) [Quercetin-3-O-glucuronide] | 13.7
COc1cc(CCC(=O)O)ccc1O [Dihydroferulic acid] | 8.81
O=c1oc2cc(O)ccc2c2ccccc12 | 22.6
CC1OC(OC2C(O)C(OCCc3ccc(O)c(O)c3)OC(CO)C2OC(=O)C=Cc2ccc(O)c(O)c2)C(O)C(O)C1O (stereo not drawn) [Verbascoside] | 12

[A] O=S(=O)(O)Oc1c(O)cccc1O [Pyrogallol 2-O-sulfate]
[B] O=c1cc(-c2ccc(O)cc2)oc2cc(O)cc(O)c12
[C] O=C(O)C1OC(Oc2c(-c3ccc(O)cc3)oc3cc(O)cc(O)c3c2=O)C(O)C(O)C1O (stereo not drawn) [Kaempferol-3-O-glucuronide]
Incoming: Put these in order: smallest LC retention time first, largest last. Write the labels, ordered according to the request.
Outgoing: A, C, B
(A: 7.61 min, C: 15.2 min, B: 23.6 min)

[A] O=c1cc(-c2ccc(O)c(O)c2)oc2cc(O)cc(O)c12
[B] COc1cc(/C=C/C(=O)O)ccc1O
Incoming: Task for the reader: decide whether A or B has the larger LC retention time. Response format: the label of the selected entry.
Outgoing: A
